B1: glmS ribozyme (parent)
chain: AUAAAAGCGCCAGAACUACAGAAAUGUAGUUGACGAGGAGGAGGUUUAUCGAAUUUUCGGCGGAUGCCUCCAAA

variants of: B1; assay: self-cleavage kobs at 160 uM GlcN6P; higher = faster cleavage; RNA array; details: with glucosamine-6-phosphate
Fewer inactive variants are shown than the library holds.
measured parameter: self-cleavage kobs at 160 uM GlcN6P

Q: Bench note: what self-cleavage kobs at 160 uM GlcN6P did AUAAAAGCGCCAGAACUACAGAAAUGUAGUUGACUAGGAGGAGGUUUAUCGAAUUUUCGGCGGUUGCCUCCAAA show?
Ans: < 1e-05 s⁻¹

Q: Same question for AUAAAAGCGCCAGAACUACAGAAAUGUAGUUGAGGAGGAGGAGGUUUAUCGAAGUUUCGGCGGAUGCCUCCAAA please.
Ans: < 1e-05 s⁻¹

Q: Same question for AUAAAAGCGCCAGAACUACAGAAAUGUAGCUGACGAGGAGGAGGUUUAUCGAAUUUUCGGCGGAUGCCUCUAAA please.
Ans: 4.2e-05 s⁻¹

Q: Same question for AUAAAGUCGCCAGGACUACAGAAAUGUAGUUGCCGAGGAGGAGGUUUAUCGAAUUUUCGGCGGAUGCCUCCAAA please.
Ans: < 1e-05 s⁻¹

Q: Same question for AUAAAAGCGCCAGAACUACAGAAAUGUAGUUGACGAGCAGGAGGUUUAUCGAAUUUUCGGCUGAUGCCUCCAAA please.
Ans: < 1e-05 s⁻¹

Q: Same question for AUAAAAGCGCCAGAAUUACAGAAAUGUAUUUGACGAGGAGGAGGUUUAUCGAAUUUUCGGCGGAUGCCUCCAAA please.
Ans: 0.000639 s⁻¹

Q: Same question for AUAAAAGCGCCAGAACUACAGAAAUGUAGUUGAAGAGGAGGAGGCUUAUCGAAUUUUCGGCGGAUGCCUCCAAA please.
Ans: < 1e-05 s⁻¹

Q: Same question for AUAAAAGCGCCAUAACUACAGAAAUGUAGUUGACGAGGAGGAGGUUUAUCGUAUUUUCGGCGGAUGCCUCCAAA please.
Ans: < 1e-05 s⁻¹

Q: Same question for AUAAAAGCGCCAGAACUACAGAAAUGUACUUCACGAUGAGGAGGGUUAUCGAAUUUUCGGCGGAUGCCUCCAAA please.
Ans: < 1e-05 s⁻¹

Q: Same question for AUAAAAGCGCCAGCACUACAGAAAUGUAGUUGACGAGGAGGAGGUUAAUCGAAUUUUGGGCGGAUGGCCCCAAA please.
Ans: 7.17e-05 s⁻¹

Q: Same question for AUAAAAGCGCAAGAACUACAGAAAUGUAGUUGACGUGGAGGAGGUUUAUCGAAUUAUCGGCGGAUGCGUACAAA please.
Ans: 6.51e-05 s⁻¹

Q: Same question for AUAAAAGCGCCAGAACUACAGAAAUGUAGUUGACGAGGAGGAGGUUUAUCCAAUUUUCGGCGAAUGCCUCCAAA please.
Ans: < 1e-05 s⁻¹

Q: Same question for AUAAAAGCGCCAGAACUACAGAAAUGUAGUUGACGAGGAGGAUGUUUAUCGAAUUUUCGGCGGAUGCAUCCAAA please.
Ans: 0.00333 s⁻¹

Q: Same question for AUAAAAGUGCCAGAACUACAGAAAUGUAGUUGACGAGGAGGAGGUUUAUCGAAUUUUCUGCGGAUGCCUCCAAA please.
Ans: < 1e-05 s⁻¹

Q: Same question for AUAAAAGCGCCUGAACUACAGAAAUGUAGUUGACGAGGAGCAGGUUUAUCGAAUUUUCGGCGGAUGCCUCCAAA please.
Ans: 2.68e-05 s⁻¹

Q: Same question for AUAAAAGCGCCAGAACUACAGAAAUGUAGUUGACGAGGAGGAGGUUUAUAGAAUUUUCGGCGGAUGCGUCCAAA please.
Ans: 6.35e-05 s⁻¹

Q: Same question for AUAAAAUGGCCAGAACUACAGAAAUGUAGUUGACGAGGAGGAGGUUUAUCCAAUUUUCGGCGGAUGCCUCCAAA please.
Ans: < 1e-05 s⁻¹

Q: Same question for AUAAAAGCGCCAGAACUACAGAAAUGUAGUUGACGAGGAGGAGGUUUUUCGAAUUUUCAGCGGAUGCCUCCAAA please.
Ans: < 1e-05 s⁻¹

Q: Same question for AUAAAAGCGCCAGAACUACAGAAAUGUAGUUGACGAGGAGGAGGUUUAUUGAAAUUUCGGCGGAUGCCUCCAAA please.
Ans: < 1e-05 s⁻¹

Q: Same question for AUAAAAGCGCCAGACCUACAGAAAUGUAGUUGACGAGGAGGAGGUUUAUCGACUUUUCGGCGGAUGCCUCCAAA please.
Ans: 5.14e-05 s⁻¹

Q: Same question for AUAAAAGCGCCAGAAAUACAGAAAUGUAAUUGACGAGGAGGAGGUUUAUCGAAUUUUCGGCGGAUGCCUCCAAA please.
Ans: 0.000175 s⁻¹

Q: Same question for AUAAAAGCGCCAGAACUACAGAAAUGUAGUUGGCGAGGAGGAGGUUUAUCGACUUUUCAGCGGAUGCCUCCAAA please.
Ans: < 1e-05 s⁻¹

Q: Same question for AUAAAAGCGCCAGAACUACAGAAAUGUAGUUGACCAGGAGGAGGUUUAUCGAAUUUUCGGCGGAUGGCUCCAAA please.
Ans: < 1e-05 s⁻¹

Q: Same question for AUAAAAGCGCAAGAACUACAGAAAUGUAGUUGACGAGGAGGAGGUGUAUCGAAUUUUCGGCGGAUGCCUCCAAA please.
Ans: < 1e-05 s⁻¹

Q: Same question for AUAAAAGCGCCAGAACUACAGAAAUGUAGUCGACGAGGAGGAGGUUAAUCGAAUUUUCGGCGGAUGCCUCCAAA please.
Ans: 0.000354 s⁻¹

Q: Same question for AUAAAAGCGCCAGAACUACAGAAAUGUAGAUGACGAGGAGGAGGUUUAUCGAAUUUUCGGCGGAUGCCACCAAA please.
Ans: 5.73e-05 s⁻¹

Q: Same question for AUAAAAGCGCUAGAACUACAGAAAUGUAGUUGACGGGGAGGAGGUUUAUCGAAUUUUCGGCGGAUGCCUCCAAA please.
Ans: < 1e-05 s⁻¹

Q: Same question for AUAAAAGCGCCAGCACUACAGAAAUGUAGUUGACGAGGAGGGGGUUUAUCGAAUUUUCGGCGGAUGCCUCCAAA please.
Ans: 0.000475 s⁻¹

Q: Same question for AUAAAAGCGCCAGAACUACAGAAAUGUAGUUGACGAGGAGGAGGUUUUUCUAAUUUUCGGCGGAUGCCUCCAAA please.
Ans: < 1e-05 s⁻¹

Q: Same question for AUAAAAGCGCCAGAUCUACAGAAAUGUAGUUGACGAGGAGGAGGUUUAUCGAAUUUUCGGCGGGUGCCUCCAAA please.
Ans: 0.00053 s⁻¹

Q: Same question for AUAAAAGCGCCAGAACUACAGAAAUGUAGGUGACGAGGAGGAAGUUUAUCGAAUUUUCGGCGGAUGCCUCCAAA please.
Ans: < 1e-05 s⁻¹

Q: Same question for AUAAAAGCGCCCGAACUACAGAAAUGUAGUUGACGAGGACGAGGUUUAUCGAAUUUUCGGGGGAUGCCUCCAAA please.
Ans: < 1e-05 s⁻¹

Q: Same question for AUAAAAGCGCAAGAACUACAGAAAUGUAGUUGACGAGGAGGAGGUUUAUCGAAUUUUCGGCGGAUGCCUUCAAA please.
Ans: 6.69e-05 s⁻¹

Q: Same question for AUAAAAGCGCCAGAACUACAGAAAUGUAGUUGACGAGGCGGAGGUUUAUCGAAUUUUCGGCGGAUGCCUUCAAA please.
Ans: 7.31e-05 s⁻¹

Q: Same question for AUAAAAGCGCCAGAACUACAGAAAUGUAGUUGACGAGGAGGAGUUUUAUCGAAUUUUCGGGGGAUGCCUCCAAA please.
Ans: < 1e-05 s⁻¹

Q: Same question for AUAAAAGCGCCAGAACUACAGAAAUGUAGUUGACGAGGAAGAGGUUUAUCGAAUUUUCGGCGGAUACCUCCAAA please.
Ans: 0.000201 s⁻¹

Q: Same question for AUAAAAGCGCUCGAACUACAGAAAUGUAGUUGACGAGGAGGACGUUUAUCGAAUUUUCGGCGGAUGCCUCCAAA please.
Ans: < 1e-05 s⁻¹

Q: Same question for AUAAAAGCGCCACAACUACAGAAAUGUAGUUGACGAGGAGGAGGUUUAUCGAAUUUUCCGCGGAUGCCUCCAAA please.
Ans: < 1e-05 s⁻¹

Q: Same question for AUAAAAGCGCCAGAACUACAGAAAUGUAGUUGACGAGGAGGAGGUUUAUCGAAUUUUCGGCGGAUGCCCCUAAA please.
Ans: 0.000208 s⁻¹

Q: Same question for AUAAAUGCGCCAGAACUACAGAAAUGUAGUUGACGAGGAGGAGGUUUAUCGAAAUUUCGGCGGAUGACUCCAAA please.
Ans: < 1e-05 s⁻¹

Q: Same question for AUAAAAGCGCCAGAACUACAGAAAUGUAGUUUACGAGGAGGAGGGUUAUCGAAUUUUCGGCGGAUGCCUACAAA please.
Ans: < 1e-05 s⁻¹

Q: Same question for AUAAAAGAGCCAGAACUACAGAAAUGUAGUUGACGAGGAGGAGGUUUAUCGAGUUUUCGGCGGAUGCCUCCAAA please.
Ans: < 1e-05 s⁻¹

Q: Same question for AUAAAAGCGCCAGAACUACAGAAAUGUAGUUGACGAGGAGGAGGUUUAUCGAAUUUUUGGCGAAUGCCUCCAAA please.
Ans: < 1e-05 s⁻¹

Q: Same question for AUAAAAGCGCCAGAACUACAGAAAUGUAGUUGACGAGGAGGAGGUUUAUCGAAUGUUCGGCGGAUGCCGCCAAA please.
Ans: 8.02e-05 s⁻¹

Q: Same question for AUAAAAGCGCCAGAACUACAGAAAUGUAGUUGACUAGGAGAAGGUUUGUCGAAUUUUGGGCGGAUGCCUCCAAA please.
Ans: < 1e-05 s⁻¹

Q: Same question for AUAAAAGCGCCAGAACUACAGAAAUGUAGUUGACGAGGAGGCGGUUUAUCGAAUUUUCGGGGGAUGCCUCCAAA please.
Ans: < 1e-05 s⁻¹
